Please go through the items and note down their AC50.
target: Adra2b (gene 24174); assay: NVS_GPCR_rmAdra2B: NovaScreen (NVS) G Protein-Coupled Receptor Assay for hybird cells Adrenergic, Alpha 2B Receptor (Adra2B) (AID 2283306)
Inconclusive results are not listed. Activity calls are given as the source filed them. Rule for the calls: active = hit-call score of the fitted dose curve at least 0.9, where 1 is the maximum; inconclusive = response in the unintended direction; inactive = score below 0.9.

Tested on Adra2b (gene 24174): CCOC(=O)c1ccc(C2CCC(NC[C@H](O)COc3ccc(O)c(NS(C)(=O)=O)c3)CC2)cc1 (some centres not stated) . Observed AC50: 23.4 µM (active)

Tested on Adra2b (gene 24174): O=c1[nH]c2ccc(S(=O)CCN3CCC(Cc4ccc(F)cc4)CC3)cc2o1 (configuration not stated) . Observed AC50: 0.609 µM (active)

Tested on Adra2b (gene 24174): `CCN(C(=O)c1cc(C)cc(OC[C@H](C)Nc2ccncc2)c1)C(C)C` . Observed AC50: 8.19 µM (active)

Tested on Adra2b (gene 24174): CCOC(=O)COc1ccc2c(c1)CC(NCC(O)c1cccc(Cl)c1)CC2 (configuration not stated) . Observed AC50: 11.2 µM (active)

Tested on Adra2b (gene 24174): `CC[C@H]1CC[C@H](NCc2cc3c(cc2OC)[C@H]2C[C@H]2C(=O)N3C)[C@H](c2ccccc2)N1` . Observed AC50: 12.3 µM (active)

Tested on Adra2b (gene 24174): `Cc1[nH]cnc1C[C@H]1CCc2c(C)c3ccccc3n2C1=O` . Observed AC50: 3.68 µM (active)

Sourced from PubChem BioAssay (EPA / NIEHS)
